List of IC50 values.
Biological target: human CRTH2 (Homo sapiens)
Sequence (Q9Y5Y4 whole entry): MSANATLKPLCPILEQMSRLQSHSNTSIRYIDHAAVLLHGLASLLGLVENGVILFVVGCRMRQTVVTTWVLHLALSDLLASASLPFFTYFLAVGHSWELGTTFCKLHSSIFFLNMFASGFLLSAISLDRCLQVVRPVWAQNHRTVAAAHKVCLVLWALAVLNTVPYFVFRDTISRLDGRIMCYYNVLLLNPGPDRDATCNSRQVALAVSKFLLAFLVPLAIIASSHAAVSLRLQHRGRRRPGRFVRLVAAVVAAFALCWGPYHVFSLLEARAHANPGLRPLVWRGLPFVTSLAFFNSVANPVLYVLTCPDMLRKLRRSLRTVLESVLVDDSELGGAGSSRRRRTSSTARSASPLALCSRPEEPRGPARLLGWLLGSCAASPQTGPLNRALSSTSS
Test: Human CRTH2 Receptor Binding Assay (whole cell, [3H]ramatroban)
Design: expressed in transfected cells; host or cells: CHO-K1
Conditions: CHO-K1 cells expressing human CRTH2 and G-alpha16; 20 nM [3H]ramatroban; 1 hour, room temperature
Protocol: A whole cell receptor binding assay using [^3H]ramatroban as the competing radioactive ligand was employed to evaluate the compound binding activity to human CRTH2. […] The binding reactions (0.2 mL) were performed in 96-well plates at room temperature in PBS containing 1.5×10^5 cells, 10 mM MgCl2, 0.06% BSA, 20 nM [^3H]ramatroban, and test compound at various concentrations. […] Specific binding data were obtained by subtracting the radioactivity of non-specific binding from each binding data. […]
Your answer is read as nM, so omit the unit and give the number.

* CS(=O)(=O)c1ccc(C(=O)c2cc(CC(=O)O)cc3cc(C(F)(F)F)ccc23)cc1 | 272
* CS(=O)(=O)c1cccc(C(=O)c2cc(CC(=O)O)cc3ccc(F)cc23)c1 | 44.8
* CCN(CC)S(=O)(=O)c1ccc(C(=O)c2cc(CC(=O)O)cc3ccc(F)cc23)cc1 | 2.5

Next molecule, IC50 to be filled in.
**Query** In one line, give reported IC50 of the entry "CCS(=O)(=O)c1ccc(Cc2cc(CC(=O)O)cc3ccc(F)cc23)cc1" .
**Result** 4.3
